studySystem: T1, 4H278-AA
T1 chain: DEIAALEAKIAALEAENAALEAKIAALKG
assayExplanation: two-hybrid library CCmax;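 also: natural log of median RNA to DNA barcode read ratio; higher means stronger binding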
recordedConditions: mean of both orientations
reportedMetric: interaction score
Number only, please.

Reference set, count: 8
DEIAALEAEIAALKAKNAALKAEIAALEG [4H121-AA] = 2.13
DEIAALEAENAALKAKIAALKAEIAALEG [4H233-AA] = 1.7
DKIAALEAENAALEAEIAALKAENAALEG [4H2187-AA] = -0.772
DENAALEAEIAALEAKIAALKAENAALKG [4H1068-AA] = -0.737
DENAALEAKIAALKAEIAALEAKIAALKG [4H1350-AA] = 0.443
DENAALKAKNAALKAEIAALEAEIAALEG [4H1985-AA] = -1.45
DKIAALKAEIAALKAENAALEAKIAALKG [4H2646-AA] = 0.745
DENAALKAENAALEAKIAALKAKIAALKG [4H1710-AA] = -0.799

Recorded result, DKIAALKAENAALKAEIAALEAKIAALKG [4H2758-AA] , interaction score: -0.138

Recorded result, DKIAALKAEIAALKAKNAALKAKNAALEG [4H2687-AA] , interaction score: 1.88

Recorded result, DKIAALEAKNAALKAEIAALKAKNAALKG [4H2512-AA] , interaction score: 2.22

Recorded result, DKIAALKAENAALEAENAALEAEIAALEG [4H2705-AA] , interaction score: -0.473
